// provenance: ChEMBL document CHEMBL4665652

assay: Tmax in mouse at 10 mg/kg, po; assay type: ADME, organism-based; conditions: in vivo
value_kind: Tmax (min)

> print(dat)
                               smiles.input  numeric.value
1  CNC(=O)[C@@H]1CCCN1S(=O)(=O)c1ccc(Cl)c(COc2cccc3c(-c4cncn4C)cc(C(C)C)nc23)c1Cl             15

###

molecular target: Nuclear receptor ROR-gamma (Homo sapiens); test: Inverse agonist activity at RORgamma in human CD4+ T cells assessed as inhibition of IL17A secretion after 72 hrs by ELISA; format: cell-based, CD4+ve Th
// EC50 lookup, one value per entry
value_kind: EC50 (nM)

> print(dat)
                                smiles.input  value.kind  numeric.value
 1  CNC(=O)[C@@H]1CCCN1S(=O)(=O)c1ccc(Cl)c(COc2cccc3c(C(F)(F)F)cc(C(C)C)nc23)c1Cl        EC50            770
 2  CNC(=O)[C@@H]1CCCN1S(=O)(=O)c1ccc(Cl)c(COc2cccc3c(-c4ccncc4)cc(C(C)C)nc23)c1Cl        EC50           1830
 3  COC[C@@H]1CCCN1S(=O)(=O)c1ccc(Cl)c(COc2cccc3c(C(F)(F)F)cc(C)nc23)c1Cl        EC50            160
 4  CCN(c1ccc(C(O)(C(F)(F)F)C(F)(F)F)cc1)S(=O)(=O)c1ccccc1        EC50            930
 5  CNC(=O)[C@@H]1CCCN1S(=O)(=O)c1ccc(Cl)c(COc2cccc3c(-n4ccnc4)cc(C(F)(F)F)nc23)c1Cl        EC50           3320
 6  CCc1cc(C(F)(F)F)c2cccc(OCc3c(Cl)ccc(S(=O)(=O)N4CCC[C@H]4C(=O)NC)c3Cl)c2n1        EC50            210
 7  CNC(=O)[C@@H]1CCCN1S(=O)(=O)c1ccc(Cl)c(COc2cccc3c(-n4ccnc4)cc(C)nc23)c1Cl        EC50           3000
 8  CNC(=O)[C@@H]1CCCN1S(=O)(=O)c1ccc(Cl)c(COc2cccc3c(-c4cncn4C)cc(C(C)C)nc23)c1Cl        EC50            150
 9  CNC(=O)[C@@H]1CCCN1S(=O)(=O)c1ccc(Cl)c(COc2cccc3c(-c4cccnc4)cc(C)nc23)c1Cl        EC50           1010
10  Cc1cc(C(F)(F)F)c2cccc(OCc3c(Cl)ccc(S(=O)(=O)N4CCC[C@H]4C(N)=O)c3Cl)c2n1        EC50            470
11  CNC(=O)[C@@H]1CCCN1S(=O)(=O)c1ccc(Cl)c(COc2cccc3c(-c4cncn4C)cc(C)nc23)c1Cl        EC50           1390
12  Cc1cc(C(F)(F)F)c2cccc(OCc3c(Cl)ccc(S(=O)(=O)N4CCC[C@H]4CO)c3Cl)c2n1        EC50            830
13  CNC(=O)[C@@H]1CCCN1S(=O)(=O)c1ccc(Cl)c(COc2cccc3c(-c4ccccc4)cc(C)nc23)c1Cl        EC50            890

###

target: CYP3A4 (Homo sapiens); assay: Inhibition of CYP3A4 (unknown origin) at 1 uM relative to control; format: ADME
Sequence (P08684 whole entry): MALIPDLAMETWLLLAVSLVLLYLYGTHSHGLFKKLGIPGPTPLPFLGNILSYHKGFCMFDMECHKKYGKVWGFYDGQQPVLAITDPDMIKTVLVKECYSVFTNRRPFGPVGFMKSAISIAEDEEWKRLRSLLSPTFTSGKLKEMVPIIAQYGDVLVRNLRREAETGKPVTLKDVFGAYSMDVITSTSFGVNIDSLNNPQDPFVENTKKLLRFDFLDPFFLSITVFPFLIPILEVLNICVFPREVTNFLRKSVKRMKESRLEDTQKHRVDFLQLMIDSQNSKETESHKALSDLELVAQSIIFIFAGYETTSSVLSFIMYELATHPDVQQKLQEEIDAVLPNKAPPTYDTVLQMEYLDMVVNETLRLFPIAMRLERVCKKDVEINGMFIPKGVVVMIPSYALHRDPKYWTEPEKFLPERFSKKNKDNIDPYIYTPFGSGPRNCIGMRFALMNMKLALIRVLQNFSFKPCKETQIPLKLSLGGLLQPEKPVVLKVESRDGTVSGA
value_kind: inhibition at 1 µM (%)

> print(dat)
                               smiles.input        target.of.assay  quantity.unit  numeric.value
1  CNC(=O)[C@@H]1CCCN1S(=O)(=O)c1ccc(Cl)c(COc2cccc3c(-c4cncn4C)cc(C(C)C)nc23)c1Cl  CYP3A4 (Homo sapiens)              %             99

###

// CL free lookup, one value per entry
experiment: Stability in human microsomes assessed as unbound intrinsic clearance; type: ADME, Microsome
value_kind: CL free (mL/min/kg)

> print(dat)
                               smiles.input  numeric.value
1  CNC(=O)[C@@H]1CCCN1S(=O)(=O)c1ccc(Cl)c(COc2cccc3c(-c4ccncc4)cc(C(C)C)nc23)c1Cl            333
2  CNC(=O)[C@@H]1CCCN1S(=O)(=O)c1ccc(Cl)c(COc2cccc3c(-n4ccnc4)cc(C(F)(F)F)nc23)c1Cl             17
3  CNC(=O)[C@@H]1CCCN1S(=O)(=O)c1ccc(Cl)c(COc2cccc3c(C(F)(F)F)cc(C)nc23)c1Cl            250
4  Cc1cc(C(F)(F)F)c2cccc(OCc3c(Cl)ccc(S(=O)(=O)N4CCCCC4)c3Cl)c2n1            233
5  Cc1cc(C(F)(F)F)c2cccc(OCc3c(Cl)ccc(S(=O)(=O)N4CCC(C#N)CC4)c3Cl)c2n1            433
6  CNC(=O)[C@@H]1CCCN1S(=O)(=O)c1ccc(Cl)c(COc2cccc3c(-n4ccnc4)cc(C)nc23)c1Cl             33
7  CNC(=O)[C@@H]1CCCN1S(=O)(=O)c1ccc(Cl)c(COc2cccc3c(-c4cncn4C)cc(C(C)C)nc23)c1Cl             33
8  CNC(=O)[C@@H]1CCCN1S(=O)(=O)c1ccc(Cl)c(COc2cccc3c(-n4ccnc4)cc(C(C)C)nc23)c1Cl             33

###

Molecular target: Nuclear receptor ROR-gamma (Homo sapiens)
Sequence (P51449 whole entry): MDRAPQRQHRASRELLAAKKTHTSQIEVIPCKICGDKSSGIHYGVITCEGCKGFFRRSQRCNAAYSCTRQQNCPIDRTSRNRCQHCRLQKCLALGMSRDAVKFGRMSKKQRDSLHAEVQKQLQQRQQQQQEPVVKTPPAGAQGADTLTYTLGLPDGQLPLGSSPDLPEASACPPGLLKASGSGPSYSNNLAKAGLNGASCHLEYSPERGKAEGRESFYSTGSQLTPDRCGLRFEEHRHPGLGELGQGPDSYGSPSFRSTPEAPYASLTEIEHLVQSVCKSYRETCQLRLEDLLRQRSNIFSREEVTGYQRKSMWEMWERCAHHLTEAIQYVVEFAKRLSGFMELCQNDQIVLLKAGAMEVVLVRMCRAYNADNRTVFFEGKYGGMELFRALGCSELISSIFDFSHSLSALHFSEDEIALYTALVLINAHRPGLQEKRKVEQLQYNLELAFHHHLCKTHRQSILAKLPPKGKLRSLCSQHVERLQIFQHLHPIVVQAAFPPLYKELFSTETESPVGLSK
Test: Inverse agonist activity at pSG5GAL4-DBD/LBD fused human RORgamma receptor expressed in COS7 cells co-expressing 5 copies of GAL4 response element after 18 hrs by luciferase reporter gene based assay
Format: cell-based
pEC50: −log10 of the molar value.
value_kind: pEC50

> print(dat)
                               smiles.input                           target.of.assay  value.kind  comparator  numeric.value
1  CCc1cc(C(F)(F)F)c2cccc(OCc3c(Cl)ccc(S(=O)(=O)N4CCC[C@H]4C(=O)NC)c3Cl)c2n1  Nuclear receptor ROR-gamma (Homo sapiens)       pEC50           =           6.46
2  CNC(=O)[C@@H]1CCCN1S(=O)(=O)c1cccc(COc2cccc3c(C(F)(F)F)cc(C)nc23)c1  Nuclear receptor ROR-gamma (Homo sapiens)       pEC50           <           5.00
3  CNC(=O)[C@@H]1CCCN1S(=O)(=O)c1ccc(Cl)c(COc2cccc3c(OCc4ccccc4)cc(C)nc23)c1Cl  Nuclear receptor ROR-gamma (Homo sapiens)       pEC50           =           6.06
4  CNC(=O)[C@@H]1CCCN1S(=O)(=O)c1ccc(Cl)c(COc2cccc3c(C(F)(F)F)cc(C(C)C)nc23)c1Cl  Nuclear receptor ROR-gamma (Homo sapiens)       pEC50           =           6.77
5  CCN(c1ccc(C(O)(C(F)(F)F)C(F)(F)F)cc1)S(=O)(=O)c1ccccc1  Nuclear receptor ROR-gamma (Homo sapiens)       pEC50           =           5.97
6  CNC(=O)[C@@H]1CCCN1S(=O)(=O)c1ccc(Cl)c(COc2cccc3c(-c4cccnc4)cc(C)nc23)c1Cl  Nuclear receptor ROR-gamma (Homo sapiens)       pEC50           =           7.00

###

assay: Tmax in mouse at 100 mg/kg, po; format: ADME, organism-based; conditions: in vivo
value_kind: Tmax (h)

> print(dat)
                               smiles.input  value.kind  quantity.unit  numeric.value
1  CNC(=O)[C@@H]1CCCN1S(=O)(=O)c1ccc(Cl)c(COc2cccc3c(-c4cncn4C)cc(C(C)C)nc23)c1Cl        Tmax              h              3
